Counter-ions that a name gives are not always drawn.
testReadout: melting point

Measured melting point, C[C@H](N)Cn1c2c(c3ccc(F)cc31)CCC2 (as salt: hydrochloride) (hydrate or solvate) : 215 °C

Measured melting point, CCSc1ccc2c3c(n(C[C@H](C)N)c2c1)CCC3 (as salt: hydrochloride) : 115 to 119 °C

Measured melting point, C[C@H](N)Cn1c2c(c3cc(F)ccc31)CCC2 (as salt: fumarate) (hydrate or solvate) : 161 to 162 °C

Measured melting point, COc1cc2c(cc1F)c1c(n2C[C@H](C)N)CCC1 (as salt: fumarate) : 213 °C (dec.)

----------
Structures can show the parent of a compound that is named as a salt.
Give melting point for every item shown.

Measured melting point, C[C@@H](N)Cn1c2c(c3cccc(Cl)c31)CCC2 [Example 43] : 299 to 302 °C

Measured melting point, C[C@H](N)Cn1c2c(c3c(Cl)c(F)ccc31)CCC2 (as salt: hydrochloride) (hydrate or solvate) [Example 18] : 252 to 253 °C

Measured melting point, C[C@H](N)Cn1c2c(c3c(Cl)cccc31)CCC2 (as salt: fumarate) [Example 4] : 172 to 173 °C (dec.)

Measured melting point, C[C@@H](N)Cn1c2c(c3ccccc31)CCC2 (as salt: hydrochloride) (hydrate or solvate) [Example 30] : 225 to 231 °C (dec.)
